Kindly find below IC50 information for CREB-binding protein (Homo sapiens, UniProt Q92793) taken from the literature.
Note: unit nM is implicit; provide only the numeric part.

IC50 for Cc1cc(N2C(=O)c3c(NC(=O)CCN(C)C)cn(C)c3C2c2ccc(Cl)cc2)cc2c1nnn2C (centres unmarked) ?
3900

Then what about the molecule O=C(Nc1ccc2[nH]ncc2n1)[C@H]1C[C@@H](F)CN1C(=O)C1(c2ccc(NS(=O)(=O)c3ccccc3)cc2)CCC(F)(F)CC1 ?
58

Param item: O=C(Nc1ccc2[nH]ncc2n1)[C@H]1C[C@@H](F)CN1C(=O)C1(c2ccc(O)cc2)CCCCC1
21

Can you handle Cc1cc(N2C(=O)c3c(C4CC4)cn(C4CN(C)C4)c3C2c2ccc(Cl)cc2)cn2c(C)nnc12 (centres unmarked) next?
5000

Now give it for O=C(Nc1ccc2[nH]c(CO)cc2n1)[C@H]1C[C@@H](F)CN1C(=O)C1(c2ccc(OC(F)F)cc2)CCC(F)(F)CC1 too.
43

Would you kindly repeat that for COc1ccc(C2(C(=O)N3C[C@H](F)C[C@@H]3C(=O)Nc3ccc4[nH]ccc4n3)CCC(F)(F)CC2)cc1 ?
54

Repeat with CNC(=O)c1c[nH]c2cnc(N3CCCc4cc(-c5cnn(C)c5)c(C(F)F)cc43)cc12
5

Same question, [2H]C([2H])([2H])Oc1ccc(C2(C(=O)N3C[C@H](F)C[C@@H]3C(=O)Nc3ccc4[nH]ncc4n3)CCC(F)(F)CC2)cc1 this time
53

Can you check CNC(=O)Nc1cc(OC)cc(N2CCCc3cc(-c4cnn(C)c4)c(C(F)F)cc32)n1 next?
115

Moving on to CNC(=O)N1CCOc2ccc(-c3cccc4c3cnn4C)cc2C1
96

# repeat for Cn1cc(-c2cc3c(cc2C(F)F)N(c2ccc4c(n2)n(C)c(=O)n4C)CCC3)cn1
2280

Let us now turn to CC(=O)N1CCc2c(cc(N3CCCc4cc(-c5cnn(C)c5)c(C(F)F)cc43)c(=O)n2C)C1
47

Cool, now CC(=O)Nc1ccc(C2(C(=O)N3C[C@H](F)C[C@@H]3C(=O)Nc3ccc4[nH]ncc4n3)CCC(F)(F)CC2)cc1
235

Note, next up: CNC(=O)N1CCOc2ccc(-c3nc(N)cc4cnccc34)cc2C1
321

// repeat for CNC(=O)c1coc2ccc(N3CCCc4cc(-c5cnn(C)c5)c(C(F)F)cc43)cc12 and report
80

Can you handle COc1ccc(C2(C(=O)N3CS(=O)(=O)C[C@@H]3C(=O)Nc3ccc4[nH]c(C)cc4n3)CCC(F)(F)CC2)cc1 next?
193

Another molecule to check: CC(=O)N1CC(c2cn(C)c3c2C(=O)N(c2cc(C)c4nnc(C)n4c2)C3c2ccc(Cl)cc2)C1 (centres unmarked)
13700

Next molecule: Cn1cc(-c2cc3c(cc2C(F)F)N(c2cc(C4CCOCC4)c4c(c2)n(C)c(=O)n4C)CCC3)cn1
4

Now try Cn1cc(-c2cc3c(cc2C(F)F)N(c2cc(N4CCCCC4)c4c(c2)n(C)c(=O)n4C)CCC3)cn1 .
26

Now consider Cn1cc(-c2cc3c(cc2C(F)F)N(c2cc(N4CCOCC4)c4c(c2)n(C)c(=O)n4C)CCC3)cn1 .
4

Repeat with CCn1c(=O)n(C)c2ccc(N3CCCc4cc(-c5cnn(C)c5)c(C(F)F)cc43)cc21
48

// repeat for Cc1cc(N2C(=O)c3c(C4CN(C)C4)cn(C)c3C2c2ccc(Cl)cc2)cn2c(C)nnc12 (centres unmarked) and report
32300

Input CNC(=O)c1ccc2c(c1)c(N1CCCc3cc(-c4cnn(C)c4)ccc31)nn2C1CCOCC1
87

What do we get for CNC(=O)c1cn(C)c2c(C)cc(N3CCCc4cc(-c5cnn(C)c5)c(C(F)F)cc43)nc12 ?
9

Similarly, CNC(=O)c1cn(C)c2c(OC)cc(N3CCCc4cc(-c5cnn(C)c5)c(C(F)F)cc43)cc12 ?
16

Check CNC(=O)c1cn(C)c2c(C3CCOCC3)cc(N3CCCc4cc(-c5cnn(C)c5)c(C(F)F)cc43)cc12 too.
11

How about O=C(NS(=O)(=O)C1CC1)c1ccc(C2(C(=O)N3C[C@H](F)C[C@@H]3C(=O)Nc3cccc4[nH]ncc34)CCCCC2)cc1 ?
23

Same for CC(=O)N1CCCc2cc(N3CCCc4cc(-c5cnn(C)c5)c(C(F)F)cc43)ccc21
429

----------
Below: compounds with IC50 recorded for CREB-binding protein (Homo sapiens, UniProt Q92793) in separate published works.

Suppose we examine the compound Cc1cc(N2C(=O)c3ccn(C)c3C2c2ccc(F)cc2)cn(C)c1=O (centres unmarked) ; what IC50 value has been reported?
4700 nM

Next entry: CNC(=O)N1CCOc2ccc(-c3cccc(-c4cnn(C)c4)c3C(F)F)cc2C1
187 nM

What would you report for COc1ccc(C2(C(=O)N3C[C@H](F)C[C@@H]3C(=O)Nc3ccc4[nH]ncc4n3)CCOCC2)cc1 ?
128 nM

How about this compound: Cn1c(-c2ccn(C)c(=O)c2)cc2c1C(c1ccc(Cl)cc1)N(c1cc(Cl)c(=O)n(C)c1)C2=O (centres unmarked)
535 nM

Entry COc1ccc(C2(C(=O)N3CS(=O)(=O)C[C@@H]3C(=O)Nc3ccc4[nH]ncc4n3)CCC(F)(F)CC2)cc1 please
122 nM

Another: CNC(=O)c1cn(C)c2c(C)cc(N3CCCc4cc(-c5cnn(C)c5)c(C(F)F)cc43)cc12
16 nM

Request: Cc1cc(N2C(=O)c3c(NC(=O)CCN(C)C)cn(C)c3C2c2ccc(Cl)cc2)nn2c(C(F)F)nnc12 (centres unmarked)
> 37000 nM

Try Cc1cn(CCN(C)C)c2c1C(=O)N(c1cc(C)c3nnc(C)n3c1)C2c1ccc(Cl)cc1 (centres unmarked) next.
27600 nM

----------
Compiled record: IC50 values for UniProtKB Q92793 across several sources.

Name the recorded IC50 for Cc1cc(N2C(=O)c3ccn(C)c3C2c2ccc(Cl)cc2)nn2c(C)nnc12 (stereo not shown) .
> 37000 nM

Consider next the compound COc1ccc(C2(C(=O)N3C[C@H](F)[C@@H](O)[C@@H]3C(=O)Nc3ccc4[nH]ncc4n3)CCC(F)(F)CC2)cc1 in the same way.
109 nM

Can you check CC(=O)N1CC(n2cc(C3CC3)c3c2C(c2ccc(Cl)cc2)N(c2cc(C)c4nnn(C)c4n2)C3=O)C1 (stereo not shown) next?
14100 nM

Cool, now COc1ncc(-c2cc3c(n2C)C(c2ccc(Cl)cc2)N(c2cc(Cl)c(=O)n(C)c2)C3=O)c(OC)n1 (stereo not shown)
205 nM

Can you check COc1ccc(C2(C(=O)N3C[C@H](O)C[C@@H]3C(=O)Nc3cccc4[nH]ncc34)CCCC2)cc1 next?
334 nM

// repeat for COc1ccc(C2(C(=O)N3C[C@H](F)C[C@@H]3C(=O)Nc3ccc4c(n3)CC(=O)N4)CCC(F)(F)CC2)cc1 and report
148 nM

Thanks! And CNC(=O)N1CCOc2ccc(-c3ccc4[nH]ccc4c3)cc2C1 ?
267 nM

Now the compound COc1ccc(C2(C(=O)N3C[C@@H](O)C[C@@H]3C(=O)Nc3ccc4[nH]ncc4n3)CCCCC2)cc1
94 nM

Cool, now Cc1c(N2CCCc3cc(-c4cnn(C)c4)c(C(F)F)cc32)ccc2c1n(C)c(=O)n2C
72 nM

One more compound: Cn1ccc2c1[C@@H](c1ccc(Cl)cc1)N(c1cc(Cl)c(=O)n(C)c1)C2=O
1300 nM

----------
Dear all, I have gathered published pIC50 values for CREB-binding protein (Homo sapiens); the list follows.
Quick note: pIC50 values are minus log10 of concentrations in mol/L.

What reported pIC50 corresponds to COc1ncc(-c2cc3c(n2C)[C@@H](c2ccc(Cl)cc2)N(c2cc(C)c(=O)n(C)c2)C3=O)c(OC)n1 on CREB-binding protein (Homo sapiens)?
7.04

Moving on to the next compound: CNC(=O)C1CCc2c(c(N3CCCc4cc(-c5cnn(C)c5)c(C(F)F)cc43)nn2C2CCOCC2)C1 (stereo not shown)
6.74

Next record, please: CNc1cccc(NC(=O)[C@H]2CCCN2C(=O)C2(c3ccc(OC)cc3)CCCC2)n1
6.63

Likewise for COc1ccc(C2(C(=O)N3C[C@H](F)C[C@@H]3C(=O)Nc3ccc4[nH]ncc4n3)CCCCC2)cn1 ?
7.37

Follow-up item: Cc1cc(N2C(=O)c3c(C(N)=O)cn(C)c3C2c2ccc(Cl)cc2)cn2c(C)nnc12 (stereo not shown)
4.51

Also CNC(=O)c1cnn2ccc(N3CCCc4cc(-c5cnn(C)c5)c(C(F)F)cc43)cc12 ?
6.27

Also check Cc1cn(CCO)c2c1C(=O)N(c1cc(C)c3nnc(C)n3c1)C2c1ccc(Cl)cc1 (stereo not shown)
5.18

What would you report for Cc1cc(N2C(=O)c3cc(C4CCOCC4)n(C)c3C2c2ccc(Cl)cc2)cn2c(C)nnc12 (stereo not shown) ?
6.19

Lookup Cc1cc(N2C(=O)c3cc(-c4ccc(=O)n(C)c4)n(C4CC4)c3C2c2ccc(Cl)cc2)cn(C)c1=O (stereo not shown)
6.52

Now the compound Cn1cc(-c2ccc3c(c2)CCCN3c2ccc3sc(=O)n(C)c3c2)cn1
6.50

Then this compound: CNC(=O)N1CCOc2ccc(-c3ccnc4ccccc34)cc2C1
6.71

Also Cc1cn(C)c2c1C(=O)N(c1cc(C)c3nnc(C(F)F)n3c1)C2c1ccc(Cl)cc1 (stereo not shown) , if possible.
4.55

Subsequent entry: CNC(=O)N1CCOc2ccc(N3CCCc4cc(-c5cnn(C)c5)c(C(F)F)cc43)cc2C1
7.85

Quick one: Cc1ccc(C2c3c(ccn3C)C(=O)N2c2cc(Cl)c(=O)n(C)c2)cc1 (stereo not shown)
5.39

Another compound to check: Cn1cc(-c2ccc3c(c2)CCCN3c2cnc3[nH]cc(-c4cnn(C)c4)c3n2)cn1
6.61

Cn1cc(-c2cc3cccc(-c4ccc5c(c4)n(C)c(=O)n5C)c3cn2)cn1 ?
7.05
